Value source: the supplement of paper PMC9112550

The sequences listed here are annotated with their shrunken log2 fold change.
Test system: Escherichia coli TOP10
Assay comment: shrunken log2 fold change of peptide-encoding DNA abundance (4.5 h post-induction vs induction); higher = less antimicrobial activity (less host growth inhibition)
Test settings: time post-induction: 4.5 h; library: site-saturation at positions 5, 18, 19, 20
Measured attribute: shrunken log2 fold change

| Sequence code | System under test | Measured value |
| --- | --- | --- |
| RRIRCRPPRLPRPRPRPIPLPRP | Escherichia coli TOP10 | 0.148 |
| RRIRPRPPRLPRPRPRPWMTPRP | Escherichia coli TOP10 | 0.0158 |
| RRIRWRPPRLPRPRPRPRWYPRP | Escherichia coli TOP10 | -0.0387 |
| RRIRVRPPRLPRPRPRPVQMPRP | Escherichia coli TOP10 | -0.0712 |
| RRIRDRPPRLPRPRPRPQYMPRP | Escherichia coli TOP10 | 0.0516 |
| RRIRGRPPRLPRPRPRPNEFPRP | Escherichia coli TOP10 | 0.141 |
| RRIRERPPRLPRPRPRPSTCPRP | Escherichia coli TOP10 | -0.324 |
| RRIRFRPPRLPRPRPRPPPVPRP | Escherichia coli TOP10 | 1.43 |

* * *

System: Escherichia coli TOP10;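 also: peptides expressed intracellularly from a pBAD plasmid library in pooled LB shake-flask culture, induced with 0.3% L-arabinose, DNA abundance read by NGS, three biological replicates, DESeq2 with apeglm shrinkage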
Assay comment: shrunken log2 fold change of peptide-encoding DNA abundance (4.5 h post-induction vs induction); higher = less antimicrobial activity (less host growth inhibition)
Test settings: time post-induction: 4.5 h; library: site-saturation at positions 5, 18, 19, 20
The sequences listed here are annotated with their shrunken log2 fold change.
Measured attribute: shrunken log2 fold change

| Sequence code | System under test | Measured attribute | Measured value |
| --- | --- | --- | --- |
| RRIRDRPPRLPRPRPRPGDHPRP | Escherichia coli TOP10 | shrunken log2 fold change | 0.00849 |
| RRIRNRPPRLPRPRPRPLHTPRP | Escherichia coli TOP10 | shrunken log2 fold change | 0.0669 |
| RRIRERPPRLPRPRPRPPHFPRP | Escherichia coli TOP10 | shrunken log2 fold change | 0.568 |
| RRIRERPPRLPRPRPRPQLFPRP | Escherichia coli TOP10 | shrunken log2 fold change | 0.0984 |
| RRIRCRPPRLPRPRPRPAIWPRP | Escherichia coli TOP10 | shrunken log2 fold change | 0.346 |
| RRIRFRPPRLPRPRPRPWDQPRP | Escherichia coli TOP10 | shrunken log2 fold change | 0.0971 |
| RRIRRRPPRLPRPRPRPDGCPRP | Escherichia coli TOP10 | shrunken log2 fold change | 0.165 |
| RRIRGRPPRLPRPRPRPNNSPRP | Escherichia coli TOP10 | shrunken log2 fold change | -0.114 |
| RRIRNRPPRLPRPRPRPYDPPRP | Escherichia coli TOP10 | shrunken log2 fold change | -0.00192 |
| RRIRKRPPRLPRPRPRPLHFPRP | Escherichia coli TOP10 | shrunken log2 fold change | -0.258 |
| RRIRLRPPRLPRPRPRPFPNPRP | Escherichia coli TOP10 | shrunken log2 fold change | 0.203 |
| RRIRIRPPRLPRPRPRPKGYPRP | Escherichia coli TOP10 | shrunken log2 fold change | -0.0143 |
| RRIRCRPPRLPRPRPRPAQYPRP | Escherichia coli TOP10 | shrunken log2 fold change | -0.467 |
| RRIRLRPPRLPRPRPRPDCRPRP | Escherichia coli TOP10 | shrunken log2 fold change | 0.0593 |
| RRIRERPPRLPRPRPRPFPMPRP | Escherichia coli TOP10 | shrunken log2 fold change | -0.423 |
| RRIRVRPPRLPRPRPRPCTYPRP | Escherichia coli TOP10 | shrunken log2 fold change | -0.0569 |
| RRIRTRPPRLPRPRPRPECDPRP | Escherichia coli TOP10 | shrunken log2 fold change | -0.134 |
| RRIRIRPPRLPRPRPRPEYDPRP | Escherichia coli TOP10 | shrunken log2 fold change | 0.0262 |
| RRIRMRPPRLPRPRPRPRISPRP | Escherichia coli TOP10 | shrunken log2 fold change | 0.395 |
| RRIRERPPRLPRPRPRPHSTPRP | Escherichia coli TOP10 | shrunken log2 fold change | -0.817 |
| RRIRSRPPRLPRPRPRPILSPRP | Escherichia coli TOP10 | shrunken log2 fold change | -0.329 |
| RRIRYRPPRLPRPRPRPFPLPRP | Escherichia coli TOP10 | shrunken log2 fold change | -0.109 |
| RRIRLRPPRLPRPRPRPEMCPRP | Escherichia coli TOP10 | shrunken log2 fold change | 0.0636 |
| RRIRVRPPRLPRPRPRPAMRPRP | Escherichia coli TOP10 | shrunken log2 fold change | 0.6 |
| RRIRDRPPRLPRPRPRPFILPRP | Escherichia coli TOP10 | shrunken log2 fold change | -0.293 |
| RRIRWRPPRLPRPRPRPWMAPRP | Escherichia coli TOP10 | shrunken log2 fold change | 0.0321 |
| RRIRFRPPRLPRPRPRPAQNPRP | Escherichia coli TOP10 | shrunken log2 fold change | 0.348 |
| RRIRARPPRLPRPRPRPRVLPRP | Escherichia coli TOP10 | shrunken log2 fold change | 0.189 |
| RRIRDRPPRLPRPRPRPLAFPRP | Escherichia coli TOP10 | shrunken log2 fold change | 0.334 |
| RRIRRRPPRLPRPRPRPMYCPRP | Escherichia coli TOP10 | shrunken log2 fold change | -0.574 |
| RRIRMRPPRLPRPRPRPTSQPRP | Escherichia coli TOP10 | shrunken log2 fold change | 0.393 |
| RRIRMRPPRLPRPRPRPLNEPRP | Escherichia coli TOP10 | shrunken log2 fold change | 0.216 |
| RRIRKRPPRLPRPRPRPQPFPRP | Escherichia coli TOP10 | shrunken log2 fold change | 0.18 |
| RRIRPRPPRLPRPRPRPIKAPRP | Escherichia coli TOP10 | shrunken log2 fold change | -0.00863 |
| RRIRLRPPRLPRPRPRPLWAPRP | Escherichia coli TOP10 | shrunken log2 fold change | 0.129 |
| RRIRQRPPRLPRPRPRPWGKPRP | Escherichia coli TOP10 | shrunken log2 fold change | -0.103 |
| RRIRTRPPRLPRPRPRPHIVPRP | Escherichia coli TOP10 | shrunken log2 fold change | -0.102 |
| RRIRMRPPRLPRPRPRPNDDPRP | Escherichia coli TOP10 | shrunken log2 fold change | 0.196 |
| RRIRGRPPRLPRPRPRPVIQPRP | Escherichia coli TOP10 | shrunken log2 fold change | 0.0682 |
| RRIRFRPPRLPRPRPRPTFPPRP | Escherichia coli TOP10 | shrunken log2 fold change | -0.0193 |
| RRIRYRPPRLPRPRPRPFWTPRP | Escherichia coli TOP10 | shrunken log2 fold change | -0.111 |
| RRIRARPPRLPRPRPRPQRIPRP | Escherichia coli TOP10 | shrunken log2 fold change | 0.177 |
| RRIRFRPPRLPRPRPRPGMAPRP | Escherichia coli TOP10 | shrunken log2 fold change | -0.058 |
| RRIRIRPPRLPRPRPRPWCQPRP | Escherichia coli TOP10 | shrunken log2 fold change | -0.339 |
| RRIRVRPPRLPRPRPRPAEKPRP | Escherichia coli TOP10 | shrunken log2 fold change | 0.00294 |
| RRIRIRPPRLPRPRPRPMWFPRP | Escherichia coli TOP10 | shrunken log2 fold change | -0.0453 |
| RRIRARPPRLPRPRPRPCAGPRP | Escherichia coli TOP10 | shrunken log2 fold change | 0.477 |
| RRIRHRPPRLPRPRPRPWKSPRP | Escherichia coli TOP10 | shrunken log2 fold change | -0.0679 |
| RRIRFRPPRLPRPRPRPGACPRP | Escherichia coli TOP10 | shrunken log2 fold change | -0.0223 |
| RRIRTRPPRLPRPRPRPCGHPRP | Escherichia coli TOP10 | shrunken log2 fold change | -0.14 |
| RRIRMRPPRLPRPRPRPMMLPRP | Escherichia coli TOP10 | shrunken log2 fold change | -0.15 |
| RRIRMRPPRLPRPRPRPKMRPRP | Escherichia coli TOP10 | shrunken log2 fold change | 1.21 |
| RRIRSRPPRLPRPRPRPSCQPRP | Escherichia coli TOP10 | shrunken log2 fold change | -0.175 |
| RRIRARPPRLPRPRPRPRLLPRP | Escherichia coli TOP10 | shrunken log2 fold change | 0.526 |
| RRIRSRPPRLPRPRPRPLTEPRP | Escherichia coli TOP10 | shrunken log2 fold change | 0.21 |
| RRIRKRPPRLPRPRPRPVREPRP | Escherichia coli TOP10 | shrunken log2 fold change | 0.817 |
| RRIRFRPPRLPRPRPRPQLRPRP | Escherichia coli TOP10 | shrunken log2 fold change | 0.0318 |
| RRIRSRPPRLPRPRPRPHFAPRP | Escherichia coli TOP10 | shrunken log2 fold change | 0.0285 |
| RRIRERPPRLPRPRPRPIVDPRP | Escherichia coli TOP10 | shrunken log2 fold change | -0.204 |
| RRIRTRPPRLPRPRPRPEKKPRP | Escherichia coli TOP10 | shrunken log2 fold change | 0.0368 |
| RRIRARPPRLPRPRPRPTQPPRP | Escherichia coli TOP10 | shrunken log2 fold change | 0.228 |
| RRIRFRPPRLPRPRPRPCMIPRP | Escherichia coli TOP10 | shrunken log2 fold change | -0.118 |
| RRIRKRPPRLPRPRPRPPPGPRP | Escherichia coli TOP10 | shrunken log2 fold change | 0.961 |
